- Measurement Notes: Solubility of eplerenone in crystallization solvents
- Assay type: physicochemical
- Experimental Setup: organic crystallization solvent or mixture of solvents, room temperature
Assay Endpoint: solubility

Request the reported solubility associated with COC(=O)[C@@H]1CC2=CC(=O)CC[C@]2(C)[C@@]23O[C@@H]2C[C@@]2(C)[C@@H](CC[C@@]24CCC(=O)O4)[C@H]13 [eplerenone]
5 to 200 mg/mL
